Hello, the source for this data is patent US11603364B2, in case you need it.

Tested on: BE(2)-M17 (M17) cells
Assay: Method I: Measurement of Fe efflux from cells (57Fe-loaded, ICP-MS of media)
Type: cell-based, human
Details: Homo sapiens; M17 cells loaded with 20 μM 57Fe, compound 20 μM, 2 h; read-out: Fe-Efflux (% increase of Fe in media relative to cell media in the absence of the compound)
Protocol: Method I: Measurement of Fe Efflux from Cells Compounds of the current invention were assessed for their ability to efflux iron (Fe) from a cell using the following protocol. […] M17 cells were loaded with iron initially by seeding into 48-well plates at a density of 0.15×10^6 cells per well in 0.5 mL media. […] The ability of experimental compounds to efflux iron was determined by the dissolution of compounds in DMSO and diluted in Hanks' Balanced Salt Solution (HBSS) for treatment of M17 cells. […]
Examples of molecules with documented activation at 20 µM follow.

Consider the reported activation at 20 µM for these molecules:
1. O=C(N/N=C1\CCCc2cccnc21)c1ccccn1 : 100 to 150%
2. COc1ccccc1C(=O)N/N=C(\C)c1cc(C)ccn1 : 30 to 100%

For BE(2)-M17 (M17) cells, give the measured activation at 20 µM of the entry "Cc1nnsc1C(=O)N/N=C1\CCCc2cccnc21"
> 150%

Name the value of activation at 20 µM reported for "C/C(=N\NC(=O)c1snnc1C)c1ccc2ccccc2n1" when tested on BE(2)-M17 (M17) cells.
30 to 100%

Fetch value of activation at 20 µM on BE(2)-M17 (M17) cells for "COc1ccccc1C(=O)N/N=C1\CCCc2cccnc21" .
100 to 150%

For BE(2)-M17 (M17) cells, give activation at 20 µM of the listed molecule: "C/C(=N\NC(=O)c1cccc(C)c1)c1nccnc1C"
< 30%

Answer with activation at 20 µM of "C/C(=N\NC(=O)c1snnc1C)c1nccnc1C" measured for BE(2)-M17 (M17) cells.
100 to 150%

Report value: activation at 20 µM, system: BE(2)-M17 (M17) cells, molecule: "O=C(N/N=C1\CCOc2cccnc21)c1cccs1"
100 to 150%

State, for BE(2)-M17 (M17) cells, measured activation at 20 µM of the molecule listed here: "O=C(N/N=C1\CCCc2cccnc21)c1ccccc1Cl"
> 150%

====

tested on: BE(2)-M17 (M17) cells; assay: Method I: Measurement of Fe efflux from cells (57Fe-loaded, ICP-MS of media); format: cell-based, human; settings: Homo sapiens; M17 cells loaded with 20 μM 57Fe, compound 20 μM, 2 h; read-out: Fe-Efflux (% increase of Fe in media relative to cell media in the absence of the compound)
Entries and their activation at 20 µM values follow.

Record excerpt, results attached:
1) COc1ccc(C(=O)N/N=C2\CCCc3cccnc32)cc1OC : 30 to 100%
2) C/C(=N\NC(=O)c1cccc(C)c1)c1ncccn1 : > 150%
3) Cc1ccc(C(=O)N/N=C/c2nccn2C)cn1 : < 30%
4) O=C(N/N=C/c1cn2ccccc2n1)c1cc2ccccc2s1 : < 30%
5) O=C(N/N=C1\CCCc2cccnc21)c1ccncc1 : > 150%
6) CCOc1ccccc1C(=O)N/N=C1\CCCc2cccnc21 : 30 to 100%

Write down activation at 20 µM measured for item "CN(C)CCOc1ccccc1C(=O)N/N=C1\CCCc2cccnc21.Cl"
> 150%

Give the measured activation at 20 µM for "Cc1nnsc1C(=O)N/N=C(/c1ncccn1)C(C)C"
30 to 100%

Retrieve activation at 20 µM measured for "Cc1cccc(C(=NNC(=O)c2ccccc2C)c2cccc(C)n2)n1" and print it.
< 30%

====

Each record here notes measured activation at 20 µM.
system: BE(2)-M17 (M17) cells; experiment: Method I: Measurement of Fe efflux from cells (57Fe-loaded, ICP-MS of media); assay type: cell-based, human; details: Homo sapiens; M17 cells loaded with 20 μM 57Fe, compound 20 μM, 2 h; read-out: Fe-Efflux (% increase of Fe in media relative to cell media in the absence of the compound)

Some solved cases for reference:
1. CCOC(=O)C1CCc2cccnc2/C1=N/NC(=O)c1snnc1C (stereo not drawn) : 30 to 100%
2. O=C(N/N=C1\CCCc2cccnc21)c1ccccc1OCCCN1CCCCC1 : > 150%

Note: attention shifts to another entry.
// Input: "C/C(=N\NC(=O)c1snnc1C)c1ncccn1" . Output its activation at 20 µM only.
> 150%
